Provenance of the data: patent US8039505B2

- test_method_notes: Pharmacokinetics in male Swiss Albino mouse, intravenous and oral (LC-MS/MS of plasma)
- Format: in vivo
- protocol_conditions: male, Swiss Albino, mouse, plasma, iv, 3 mg/kg, intravenous bolus 3 mg/kg, 0.5 h, N = 3
measured_parameter: concentration at 0.5 h (ng/mL)
Give bare numbers, in ng/mL.

Q. Report concentration at 0.5 h, nothing else, for this compound: C(=NNc1cccc2cccnc12)c1c[nH]c2ccccc12
A. 292

###

- test_method_notes: Pharmacokinetics in male Swiss Albino mouse, intravenous and oral (LC-MS/MS of plasma)
- Assay type: in vivo
- protocol_conditions: male, Swiss Albino, mouse, plasma, po, 15 mg/kg, mouse, oral solution 15 mg/kg; read-out: T1/2 (converted)
measured_parameter: half-life (h)
Answers are plain numbers, in h.

Q. Supply reported half-life belonging to this molecule: C(=NNc1cccc2cccnc12)c1c[nH]c2ccccc12
A. 1.98

###

- test_method_notes: Pharmacokinetics in male Swiss Albino mouse, intravenous and oral (LC-MS/MS of plasma)
- Type: in vivo
- protocol_conditions: male, Swiss Albino, mouse, plasma, iv, 3 mg/kg, mouse, intravenous bolus 3 mg/kg, 2 h, individual mice; LLOQ 1.04 ng/mL; read-out: Individual plasma concentration
measured_parameter: concentration at 2 h (ng/mL)
One number for each entry, in ng/mL.

Q. Give the reported concentration at 2 h for this molecule. C(=NNc1cccc2cccnc12)c1c[nH]c2ccccc12 [Compound C3]
A. 71.9

###

- test_method_notes: Pharmacokinetics in male Swiss Albino mouse, intravenous and oral (LC-MS/MS of plasma)
- Assay type: in vivo
- protocol_conditions: male, Swiss Albino, mouse, plasma, iv, 3 mg/kg, mouse plasma, IV 3 mg/kg, 0.083 h sample; read-out: Initial conc. (repeat analysis)
measured_parameter: concentration at 0.083 h
Respond with the figure and its unit, in that order.

Q. Look up concentration at 0.083 h of C(=NNc1cccc2cccnc12)c1c[nH]c2ccccc12 [Compound C3] and report it.
A. 47.3 ng/mL

###

- test_method_notes: Pharmacokinetics in male Swiss Albino mouse, intravenous and oral (LC-MS/MS of plasma)
- Format: in vivo
- protocol_conditions: male, Swiss Albino, plasma; mouse, oral solution 15 mg/kg
measured_parameter: Cmax (ng/mL)
One number for each entry, in ng/mL.

Q. Entry C(=NNc1cccc2cccnc12)c1c[nH]c2ccccc12 [Compound C3] needs its Cmax filled in; supply it.
A. 199

###

- test_method_notes: Pharmacokinetics in male Swiss Albino mouse, intravenous and oral (LC-MS/MS of plasma)
- Type: in vivo
- protocol_conditions: male, Swiss Albino, mouse, plasma, oral, 15 mg/kg, mouse, oral 15 mg/kg vs IV 3 mg/kg; read-out: F, absolute oral solution bioavailability
measured_parameter: bioavailability

Q. Supply reported bioavailability belonging to this compound: C(=NNc1cccc2cccnc12)c1c[nH]c2ccccc12
A. ~26%

###

- test_method_notes: Pharmacokinetics in male Swiss Albino mouse, intravenous and oral (LC-MS/MS of plasma)
- Assay type: in vivo
- protocol_conditions: male, Swiss Albino, mouse, plasma, oral, 15 mg/kg, mouse, oral solution 15 mg/kg, 4 h, N = 3; read-out: Mean plasma concentration
- Description: The pharmacokinetics of 1H-indole-3-carbaldehyde quinolin-8-ylhydrazone (Compound C3) was evaluated following intravenous (3 mg/kg) and oral (15 mg/kg) solution administration of 1H-indole-3-carbaldehyde quinolin-8-ylhydrazone in male Swiss Albino mouse. The effect of the Test Item, 1H-indole-3-carbaldehyde quinolin-8-ylhydrazone on complete blood count (CBC) was also evaluated. Pharmacokinetic phase consisted of two groups, Group 1 and Group 2. […]
measured_parameter: concentration at 4 h (ng/mL)
One number for each entry, in ng/mL.

Q. Dear colleague, please send me the reported concentration at 4 h for C(=NNc1cccc2cccnc12)c1c[nH]c2ccccc12 [Compound C3] when you can.
A. 146
